# measured_on: UniProt Q9UHD2
# Sequence (Q9UHD2 whole entry): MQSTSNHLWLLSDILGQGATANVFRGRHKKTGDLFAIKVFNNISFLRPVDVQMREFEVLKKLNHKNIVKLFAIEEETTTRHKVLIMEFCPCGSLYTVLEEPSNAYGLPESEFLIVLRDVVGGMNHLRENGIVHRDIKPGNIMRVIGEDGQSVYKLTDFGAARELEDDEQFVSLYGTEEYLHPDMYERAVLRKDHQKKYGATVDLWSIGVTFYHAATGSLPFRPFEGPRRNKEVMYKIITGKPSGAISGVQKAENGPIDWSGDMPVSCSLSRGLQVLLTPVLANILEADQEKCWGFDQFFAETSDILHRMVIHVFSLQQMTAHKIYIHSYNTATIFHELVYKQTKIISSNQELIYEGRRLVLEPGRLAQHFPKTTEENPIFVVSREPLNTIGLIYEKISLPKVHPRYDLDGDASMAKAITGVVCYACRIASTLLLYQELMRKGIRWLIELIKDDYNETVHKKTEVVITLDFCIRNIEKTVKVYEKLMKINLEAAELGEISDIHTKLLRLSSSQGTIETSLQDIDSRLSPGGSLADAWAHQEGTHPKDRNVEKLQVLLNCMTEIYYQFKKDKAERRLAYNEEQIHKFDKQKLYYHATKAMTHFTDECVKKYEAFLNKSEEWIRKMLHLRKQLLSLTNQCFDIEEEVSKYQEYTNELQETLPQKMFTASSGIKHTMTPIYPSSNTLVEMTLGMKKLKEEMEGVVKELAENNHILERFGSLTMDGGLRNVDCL
# method: TBK1 low ATP kinase assay (in vitro assay 1)
# Format: biochemical
# condition_info: in vitro assay 1, read-out: TBK1 low ATP kinase assay IC50
pIC50: −log10 of the molar value.
Label label 0 if pIC50 falls below 7; label label 1 in every other case.

INSERT INTO results (molecule, measured_on, label_value) VALUES
  ('Cc1nccc(-c2ccc3nc(Nc4cc(CN5CCN(C(=O)OC(C)(C)C)CC5)ccn4)[nH]c3c2)c1Cl', 'UniProt Q9UHD2', 'label 0'),
  ('Cc1nccc(-c2ccc3nc(Nc4cc(CN5CCN(C(=O)C6CCC6)CC5)ccn4)[nH]c3c2)n1', 'UniProt Q9UHD2', 'label 1'),
  ('CCc1cc(-c2ccc3nc(Nc4cc(CN5CCN(C(=O)CC(F)(F)F)CC5)ccn4)[nH]c3c2)ncn1', 'UniProt Q9UHD2', 'label 1'),
  ('COc1ccncc1-c1ccc2nc(Nc3cc(CN4CCN(C(=O)C5CC5)CC4)ccn3)[nH]c2c1', 'UniProt Q9UHD2', 'label 0'),
  ('CC(c1ccnc(Nc2nc3ccc(-c4ccncn4)cc3[nH]2)c1)N1CCN(C(=O)C2CCC2)CC1 (single isomer, unassigned) [Example 23.05.03.A]', 'UniProt Q9UHD2', 'label 1');

Can CC1CC1Cn1cc(-c2ccc3nc(Nc4cc(C(C)N5CCN(C(=O)OC(C)(C)C)CC5)ccn4)[nH]c3c2)cn1 (single isomer, unassigned) be said to have pIC50 at or above 7?
label 1

Can "O=C(CC1CC1)N1CCN(Cc2ccnc(Nc3nc4ccc(-c5cncnc5)cc4[nH]3)c2)CC1" be said to have pIC50 at or above 7?
label 0

Can CC(c1ccnc(Nc2nc3ccc(-c4cc(C(F)(F)F)nn4C)cc3[nH]2)c1)N1CCN(C(=O)C2CC2)CC1 (single isomer, unassigned) be said to have pIC50 at or above 7?
label 0

Can "Cc1noc(-c2ccc3nc(Nc4cc(CN5C[C@@H](C)N(C(=O)CC(F)(F)F)C[C@@H]5C)ccn4)[nH]c3c2)n1" be said to have pIC50 at or above 7?
label 0

Can Cc1nccc(-c2ccc3nc(Nc4cc(C(C)N5CCN(C(=O)C6CCC6)CC5)ccn4)[nH]c3c2)n1 (single isomer, unassigned) [Example 24.05.02.B] be said to have pIC50 at or above 7?
label 1

Every entry's value here was drawn from patent US10894784B2.
